A collection of compounds and their measured cytotoxicity at 70.5 h
# TEST_DESCRIPTION: Human HepG2 cell viability assay in 384 well format
# Format: toxicity, cell-based
# Design: dose 125 nL, time 70.5 hour; concentration not given beside the values
# CONDITION_DETAILS: HepG2 cells, read-out: Inhibition
PARAMETER_MEASURED: cytotoxicity at 70.5 h (%)

>>> result_number("CCCS(=O)(=O)NCC(O)c1c(Cl)cccc1Cl (configuration not stated)")
-0.597
>>> result_number("O=C(CCC1CCCO1)NCCCC(=O)Nc1ccc(Cl)cc1 (configuration not stated)")
-12
>>> result_number("Cc1csc(CN2C[C@H](NC(=O)C3CCOCC3)[C@@H](C(C)C)C2)n1")
-10.9
>>> result_number("CCCc1nnsc1C(=O)NCC1CCN(S(C)(=O)=O)CC1")
-4
>>> result_number("CS(=O)(=O)c1cccc(Cl)c1C(=O)NCCN1C(=O)CCC1=O")
16.3
>>> result_number("CCc1nc(CN(C(C)=O)C2CCN(Cc3ccccc3F)C2)no1 (configuration not stated)")
-7.96
>>> result_number("COCCC(=O)N1CCN(CC2CC2)c2nc(C)ccc2C1")
9.16
>>> result_number("CN1CCN(Cc2ccccc2CNC(=O)c2cc(Cl)ccc2F)CC1")
-5.92
>>> result_number("O=C(NC[C@]12COC[C@H]1CN(Cc1ccco1)C2)c1ccccc1")
-14.6
>>> result_number("CCn1nnnc1-c1cccc(NC(=O)COC2CCCC2)c1")
6.8
>>> result_number("CC(Cn1cccn1)NC(=O)NCc1ccoc1 (configuration not stated)")
-10.1
>>> result_number("CC(C)(CN)NS(=O)(=O)c1c(F)cccc1F")
2.67

---

# TEST_DESCRIPTION: Human HepG2 cell viability assay in 384 well format
# Format: toxicity, cell-based
# Design: dose 125 nL, time 70.5 hour; concentration not given beside the values
# CONDITION_DETAILS: HepG2 cells, read-out: Inhibition
Simple rule here: cytotoxicity at 70.5 h less than 10% is YES, otherwise NO.

>>> discrete_label("COc1cc(C(=O)NC(C)C)nc2c(C)cc(F)cc12")
"NO"
>>> discrete_label("Cc1ncc(-c2ccnc(N3CCCCC3)n2)c(=O)[nH]1")
"YES"
>>> discrete_label("CCN1CC[C@@H]2OC[C@H](C(=O)NCc3cccs3)C[C@@H]2C1")
"NO"
>>> discrete_label("Cc1ccc(Br)cc1C(=O)Nc1cc(C(N)=O)n(C)c1")
"YES"
>>> discrete_label("CN(C)C(=O)COCc1cncc2c1CCN(Cc1ccccn1)C2")
"YES"
>>> discrete_label("Cc1n[nH]c(C2CN(CCc3cccs3)CCO2)n1 (stereo unspecified)")
"NO"

---

# TEST_DESCRIPTION: Human HepG2 cell viability assay in 384 well format
# Assay type: toxicity, cell-based
# Parameters: dose 125 nL, time 70.5 hour; concentration not given beside the values
# CONDITION_DETAILS: HepG2 cells, read-out: Inhibition
compounds and their reported cytotoxicity at 70.5 h
PARAMETER_MEASURED: cytotoxicity at 70.5 h (%)

>>> result_number("CN(C)C(=O)c1cn2cc(-c3cccc(Cl)c3)n(CC3CC3)c(=O)c2n1")
-5.52
>>> result_number("Cc1cnc(N2CC3(CCN(C(=O)c4ccoc4)C3)C2)nc1")
-2.31
>>> result_number("COc1ccccc1C(=O)N1CC(Cc2nccc3ccn(C)c23)C1")
-0.41
>>> result_number("COc1cccc(CN2C[C@H]3CC[C@H]2C3)c1OCCN1CCOCC1")
-2.04
>>> result_number("Cc1cccc(CN2CCCC2c2cccc(Nc3nccs3)n2)c1 (stereo unspecified)")
84.1
>>> result_number("CN(C)CC(=O)N1CCC2(CC1)COC(COc1ccccn1)C2 (stereo unspecified)")
-7.86
>>> result_number("CN1CCOCC2(CCCN(C(=O)Cc3ccncc3)C2)C1 (stereo unspecified)")
-11.6
>>> result_number("COCCN(Cc1ccoc1)C(=O)c1c(F)cccc1F")
-3.64
>>> result_number("COC(=O)c1cccc(S(=O)(=O)NC(=O)CC2CCCC2)c1")
22.5
>>> result_number("CC1CCN(S(=O)(=O)N2CCc3sccc3C2)CC1")
45
>>> result_number("Cn1cc(C2CC(=O)NC23CCN(C(=O)c2ccc[nH]2)CC3)cn1 (stereo unspecified)")
-1.53
